Assay: Formaldehyde removing ability test (GC)
Conditions: 30 min; 2.0% formaldehyde solution, 3 molar equivalents, room temperature
MEASURED_ENDPOINT: Area (formaldehyde, GC) (mAU * min)
Numbers only, in mAU * min.

[
  {
    "MOLECULE": "O=C(O)c1cncc(N2CCCN(c3cncc(C(=O)O)c3)CCN(c3cncc(C(=O)O)c3)CCCN(c3cncc(C(=O)O)c3)CC2)c1 [Embodiment 11]",
    "UNIT_ABBREV": "mAU * min",
    "EXPERIMENTAL_VALUE": 0.174
  },
  {
    "MOLECULE": "O=C(O)c1ccc(N2CCCN(c3ccc(C(=O)O)cc3)CCN(c3ccc(C(=O)O)cc3)CCCN(c3ccc(C(=O)O)cc3)CC2)cc1 [Embodiment 10]",
    "UNIT_ABBREV": "mAU * min",
    "EXPERIMENTAL_VALUE": 0.171
  },
  {
    "MOLECULE": "O=C(O)CN(CCN(CCN(CC(=O)O)CC(=O)O)CC(=O)O)CCN(CC(=O)O)CC(=O)O [Embodiment 1]",
    "UNIT_ABBREV": "mAU * min",
    "EXPERIMENTAL_VALUE": 0.170
  },
  {
    "MOLECULE": "NCCNCCNCCN [Trientine, Triethylenetetramine, reference compound]",
    "UNIT_ABBREV": "mAU * min",
    "EXPERIMENTAL_VALUE": 0.168
  },
  {
    "MOLECULE": "C1CNCCNCCNCCN1 [Cyclen, 1,4,7,10-tetraazacyclododecane]",
    "UNIT_ABBREV": "mAU * min",
    "EXPERIMENTAL_VALUE": 0.181
  }
]

In the following, a different molecule is considered.
query: Which Area (formaldehyde, GC) value is on record for O=C(O)c1cncc(N2CCN(c3cncc(C(=O)O)c3)CCN(c3cncc(C(=O)O)c3)CCN(c3cncc(C(=O)O)c3)CC2)c1 [Embodiment 7] ?
result: 0.181
